# target desc: mouse melanocortin-1 receptor (mouse, UniProt Q01727 1-315)
# Sequence (Q01727 whole entry): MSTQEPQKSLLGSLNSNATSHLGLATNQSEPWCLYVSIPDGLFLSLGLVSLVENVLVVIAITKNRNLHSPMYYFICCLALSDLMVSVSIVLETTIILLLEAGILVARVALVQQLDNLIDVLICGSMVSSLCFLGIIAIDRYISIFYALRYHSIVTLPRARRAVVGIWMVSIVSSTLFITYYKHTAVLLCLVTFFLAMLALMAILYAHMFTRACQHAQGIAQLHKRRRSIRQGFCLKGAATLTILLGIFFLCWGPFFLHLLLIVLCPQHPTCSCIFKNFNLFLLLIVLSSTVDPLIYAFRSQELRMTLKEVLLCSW
# method summary: cell-based or functional assay
Bridges are numbered along the chain shown (N, C = ends). Where no end group is shown, it is not given here. [ ]: non-standard residue; d: D form. Nle = CCCC[C@H](N)C(=O)O; Dap = NC[C@H](N)C(=O)O

binder: Ac-[Nle]DHAAAK-NH2 (lactam 2-7; SMILES CCCC[C@H](NC(C)=O)C(=O)N[C@H]1CC(=O)NCCCC[C@@H](C(N)=O)NC(=O)[C@H](C)NC(=O)[C@H](C)NC(=O)[C@H](C)NC(=O)[C@H](Cc2c[nH]cn2)NC1=O) [SEQ ID NO:19 (Ac-Nle-c[Asp-His-Ala-Ala-Ala-Lys])]
EC50 (agonist): > 100 µM
--
binder: YDWRFNAF[Dap]Y-NH2 (lactam 2-9; N-terminus assumed; SMILES C[C@@H]1NC(=O)[C@H](CC(N)=O)NC(=O)[C@H](Cc2ccccc2)NC(=O)[C@H](CCCNC(=N)N)NC(=O)[C@H](Cc2c[nH]c3ccccc23)NC(=O)[C@@H](NC(=O)[C@@H](N)Cc2ccc(O)cc2)CC(=O)NC[C@@H](C(=O)N[C@@H](Cc2ccc(O)cc2)C(N)=O)NC(=O)[C@H](Cc2ccccc2)NC1=O) [SEQ ID NO:4 (Tyr-c[Asp-Trp-Arg-Phe-Asn-Ala-Phe-Dpr]-Tyr)]
EC50 (agonist): 13.5 µM
--
binder: YDHXRPNAFXY (Asp-Dpr side chain lactam bridge; Dpr; DPhe; C-terminal amide (amide resin)) [SEQ ID NO:38 (Tyr-c[Asp-His-DPhe-Arg-Pro-Asn-Ala-Phe-Dpr]-Tyr)]
EC50 (agonist): 1 µM
--
binder: YDFRWNAF[Dap]Y-NH2 (lactam 2-9) [SEQ ID NO:6 (Tyr-c[Asp-Phe-Arg-Trp-Asn-Ala-Phe-Dpr]-Tyr)]
EC50 (agonist): 19.7 µM

Entry source: patent US7084111
